- Target or test system: 3',5'-cyclic-AMP phosphodiesterase 4D (Homo sapiens, UniProt Q08499)
- Sequence (Q08499 whole entry, the tested form may be a part): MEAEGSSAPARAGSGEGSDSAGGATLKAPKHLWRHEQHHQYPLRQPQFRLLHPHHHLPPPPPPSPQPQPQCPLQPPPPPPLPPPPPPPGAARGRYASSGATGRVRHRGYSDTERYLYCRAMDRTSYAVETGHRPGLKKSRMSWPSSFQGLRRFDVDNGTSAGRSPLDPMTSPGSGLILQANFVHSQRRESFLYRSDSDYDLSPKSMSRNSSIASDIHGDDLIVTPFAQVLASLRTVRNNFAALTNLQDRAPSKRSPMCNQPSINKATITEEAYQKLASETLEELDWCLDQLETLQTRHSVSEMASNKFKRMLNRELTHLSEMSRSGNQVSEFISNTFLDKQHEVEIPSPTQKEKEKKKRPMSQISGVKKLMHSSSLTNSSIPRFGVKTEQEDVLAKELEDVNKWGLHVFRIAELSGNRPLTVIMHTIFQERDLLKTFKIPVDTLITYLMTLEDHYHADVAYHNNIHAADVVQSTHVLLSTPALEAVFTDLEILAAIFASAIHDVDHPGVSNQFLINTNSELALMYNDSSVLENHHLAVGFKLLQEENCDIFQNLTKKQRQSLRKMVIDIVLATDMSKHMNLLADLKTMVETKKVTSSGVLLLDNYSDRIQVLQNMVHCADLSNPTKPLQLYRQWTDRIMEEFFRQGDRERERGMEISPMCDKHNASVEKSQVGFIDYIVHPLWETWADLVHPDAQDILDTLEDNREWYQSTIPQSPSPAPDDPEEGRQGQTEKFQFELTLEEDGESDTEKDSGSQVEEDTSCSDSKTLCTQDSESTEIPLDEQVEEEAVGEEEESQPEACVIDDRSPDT
- Assay summary: Inhibition of PDE4D2 (86 to 413 residues) (unknown origin) expressed in Escherichia coli BL21 using [3H-GMP] or [3H-AMP] as substrate incubated for 15 mins by liquid scintillation counting method
Observation type: pIC50
Lab note: report pIC50 as minus log10 of the concentration in molar units, number only.

>>> print(df.to_string())
                                   molecule  observation_type  measured_value
0  CC(C)=CC1CC(C)(CCO)Oc2c1c(=O)n(C)c1ccncc21 (racemic)             pIC50            5.12
1  CCn1c(=O)c2c(c3ccc(C)nc31)O[C@@](C)(CCO)C[C@H]2C=C(C)C             pIC50            8.51

# lookup: pIC50 of CC(C)=CC1CC(C)(CCO)Oc2c1c(=O)n(C(C)C)c1ncccc21 (racemic)
7.00

I would be grateful if you could share the reported pIC50 for CC(C)=CC1CC(C)(CCO)Oc2c1c(=O)n(C)c1ncncc21 (racemic) .
5.77

Give its pIC50 value. Item: CCn1c(=O)c2c(c3ccc(C(F)(F)F)nc31)OC(C)(CCO)CC2C=C(C)C (racemic)
7.92

---

- Target or test system: UniProtKB Q08499
- Assay summary: Inhibition of PDE4D2 (86 to 413 residues) (unknown origin) expressed in Escherichia coli BL21 using [3H-GMP] or [3H-AMP] as substrate incubated for 15 mins by liquid scintillation counting method
pIC50: −log10 of the molar value.
Observation type: pIC50

>>> df
                                   molecule  target_or_test_system  measured_value
0  CC(C)=CC1CC(C)(CC(=O)O)Oc2c1c(=O)n(C)c1ccccc21 (racemic)       UniProtKB Q08499          < 5.00

Using the record for CC(C)=CC1CC(C)(CCN)Oc2c1c(=O)n(C)c1ccccc21 (racemic) , report its pIC50.
< 5.00

Quick one: pIC50 of CC(C)=CC1CC(C)(CCO)Oc2c1c(=O)n(C)c1cccnc21 (racemic) ?
< 5.00
